- Tested on: RXF 393 renal
- Method Notes: NCI-60 one-dose screen, 48 h (100 = growth as untreated, 0 = no growth, -100 = all killed)
- Assay Context: 10 µM unless noted
The panel holds about 83,000 compounds, 20% with a hit somewhere; the sample as a whole holds those more often.
Property Label: growth (%)

O=C(NNC(=O)c1ccc([N+](=O)[O-])cc1)c1ccc([N+](=O)[O-])cc1; 111
O=C(O)c1ccc(-n2cc(/C=N/Nc3ccccc3F)c(-c3ccc(O)cc3)n2)cc1; 92.6
CCOc1ccc(NC2=C(Cl)C(=O)c3ccccc3C2=O)cc1; 105
c1coc(CSc2ncnc3nc[nH]c23)c1; 91.1
C=C1C(=O)O[C@H]2[C@H]1CC/C(COC(=O)c1cccc3ccccc13)=C\CC[C@@]1(C)O[C@@H]21; -89.6
COc1ccc(-c2ccc(NC(=O)Nc3cccc(C(F)(F)F)c3)c(C)n2)cc1; 85.9
CC(/C=C/C=C(\C)[C@H](O)[C@H](C)C(=O)O[C@H]1C[C@H](C)C=C2C=C[C@@]3(C)O[C@@H](O)CC(=O)[C@]3(C)[C@H]21)=C\C=C\C(=O)O; -49.5
COc1ccc2c(c1)OC(N)=C(C#N)C2c1ccc(F)cc1 (stereo unspecified); 16.1
COc1ccc(C[C@H](N)C(=O)N[C@@H]2[C@@H](CO)OC(n3cnc4c(N(C)C)ncnc43)[C@@H]2O)cc1 (stereo partly specified); -86.6
CCNc1cc(S(=O)(=O)O)ccc1C; 110
CC(=S)Nc1ccccc1; 107
CC(=O)Nc1ccc([I+]c2ccc([N+](=O)[O-])cc2)cc1; 129
COc1ccc(OCC(O)CN2CCN(c3ccc(Cl)cc3)CC2)cc1 (stereo unspecified); 98
COc1cccc(-c2nc3sccn3c2-c2ccnc(NCCNC(=O)c3ccccc3)n2)c1; 86.3
COc1cccc(C2CC(c3cc(OC)c(OC)c(OC)c3)=NN2)c1 (stereo unspecified); 83.8
COc1ccc(/C=C/C(=O)c2ccc(-n3cc(CN4CCN(c5cc6c(cc5F)c(=O)c(C(=O)O)cn6C5CC5)CC4)nn3)cc2)cc1OC; 4.51
Nc1ncnc2c1c(C(F)(F)F)cn2[C@@H]1O[C@H](CO)[C@@H](O)[C@H]1O; -45.2
CN(C)c1ccc(/C=N/N=C(N)N)cc1; 75.1
Cc1cn(-c2cc(C(=O)Nc3cccc(-n4ccc5c(NC(=O)c6ccccc6)nccc54)c3)cc(C(F)(F)F)c2)cn1; -89.8
Cc1ccc(NC(=O)CN2CCOCC2)cc1Cl; 104
CC12CCC3C(CCC4CC(O)CCC43C)C1C/C(=C/O)C(=O)O2 (stereo unspecified); 99.8

Origin of measurements: PubChem BioAssay (NCI)
